target.or.system: TLR8 (Homo sapiens, UniProt Q9NR97)
Construct: Human peripheral blood mononuclear cells (PBMCs) consist of lymphocytes, monocytes and dendritic cells that express TLR7, TLR8 and TLR9; endogenous in cells
Sequence (Q9NR97 27-1041): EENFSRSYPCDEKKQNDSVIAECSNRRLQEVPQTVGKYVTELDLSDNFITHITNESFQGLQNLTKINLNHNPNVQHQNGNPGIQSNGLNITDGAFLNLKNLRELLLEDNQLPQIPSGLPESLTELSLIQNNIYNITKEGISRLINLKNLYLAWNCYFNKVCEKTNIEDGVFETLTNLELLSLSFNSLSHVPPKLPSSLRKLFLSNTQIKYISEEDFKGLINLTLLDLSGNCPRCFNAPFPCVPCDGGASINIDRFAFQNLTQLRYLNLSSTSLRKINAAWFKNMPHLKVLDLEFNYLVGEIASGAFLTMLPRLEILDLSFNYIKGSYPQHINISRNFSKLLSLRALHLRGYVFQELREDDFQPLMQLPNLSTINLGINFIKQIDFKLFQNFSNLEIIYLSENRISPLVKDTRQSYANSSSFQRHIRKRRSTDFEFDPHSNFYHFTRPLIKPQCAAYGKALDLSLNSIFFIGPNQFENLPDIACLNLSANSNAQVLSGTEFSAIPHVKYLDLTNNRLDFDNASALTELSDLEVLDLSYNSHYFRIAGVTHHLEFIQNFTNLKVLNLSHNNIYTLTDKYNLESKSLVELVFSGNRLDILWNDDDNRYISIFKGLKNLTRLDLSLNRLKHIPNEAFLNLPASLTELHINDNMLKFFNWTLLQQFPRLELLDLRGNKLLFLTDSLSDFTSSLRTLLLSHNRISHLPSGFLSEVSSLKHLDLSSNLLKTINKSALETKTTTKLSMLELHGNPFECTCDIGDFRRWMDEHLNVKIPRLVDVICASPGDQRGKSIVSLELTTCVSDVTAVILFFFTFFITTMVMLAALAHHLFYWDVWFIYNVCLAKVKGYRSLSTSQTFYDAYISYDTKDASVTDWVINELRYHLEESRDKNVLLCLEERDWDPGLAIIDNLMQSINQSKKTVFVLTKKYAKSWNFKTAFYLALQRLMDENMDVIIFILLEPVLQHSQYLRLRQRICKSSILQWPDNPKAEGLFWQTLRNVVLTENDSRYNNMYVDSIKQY
assay.details: TLR8 human PBMC cell-based assay (antagonist, Compound A stimulated cytokine release)
test.context: human PBMCs; TLR8 agonist Compound A 800 nM, 6 hours; cytokines (TNFa and IL 12p40) in supernatant; read-out: TLR-8 EC50
Recorded measurements of pEC50, one per entry
Please report pEC50 as the negative decimal logarithm of the molar concentration, giving only the number.

Field pEC50 (entry Cc1cc(-c2[nH]c3cc(C(=O)N4CCNC(=O)C4)sc3c2C(C)C)cn2ncnc12 ) reads 6.94

Field pEC50 (entry Cc1cc(-c2[nH]c3cc(C(=O)NC4CCNCC4)sc3c2C(C)C)cc(C)n1 ) reads 6.23

Field pEC50 (entry Cc1c(C(=O)N2CCNCC2)sc2c(C(C)C)c(-c3cc(C)c4ncnn4c3)[nH]c12 ) reads 6.52

Field pEC50 (entry Cc1cc(-c2[nH]c3cc(C4CCC(N5CCC(OC(F)F)C5)CC4)sc3c2C(C)C)cn2ncnc12 (stereo not shown) ) reads 7.92

Field pEC50 (entry Cc1c(-c2[nH]c3cc(-c4ccc(N5CCNCC5)nc4)sc3c2C(C)C)cn2ncnc2c1C ) reads 9.30

Field pEC50 (entry Cc1cc(-c2[nH]c3cc(C(=O)N4CCN[C@@H](C)C4)sc3c2C(C)C)cn2ncnc12 ) reads 9.52

Field pEC50 (entry Cc1cc(-c2[nH]c3cc(C(=O)N4CCCC5CNCC54)sc3c2C(C)C)cn2ncnc12 (stereo not shown) ) reads 7.74

Field pEC50 (entry Cc1cc(-c2[nH]c3cc(-c4cccc5c4CCNC5)sc3c2C(C)C)cn2ncnc12 ) reads 8.28

Field pEC50 (entry Cc1cc(-c2[nH]c3cc(C(=O)N(C)[C@H]4CNC[C@H]4F)sc3c2C(C)C)cn2ncnc12 ) reads 7.76
